test: Single ascending dose study, plasma pharmacokinetics of Compound (1) and GHB; type: in vivo, human; settings: human, plasma, po, 0.5 g, Cohort 2 (0.50 g) single oral dose, fasted; read-out: Compound (1) plasma AUC0-inf, Median
Metric name: AUC(0-inf) (ng·h/mL)
A number alone suffices; assume ng·h/mL.

Exercise: Need AUC(0-inf), item "CC(C)[C@H](N)C(=O)OCCCC(=O)O"
Key: 1280

====

experiment: Food effect and relative bioavailability crossover study, Compound (1) vs sodium oxybate; settings: human, plasma, po, 7.25 g, Compound (1) plasma AUC0-inf, Mean, 7.25 g Compound (1) oral, Fasted
Metric name: AUC(0-inf) (ng·h/mL)
A number alone suffices; assume ng·h/mL.

Exercise: Need AUC(0-inf), item "CC(C)[C@H](N)C(=O)OCCCC(=O)O"
Key: 22400
